Tested on: luciferase (Luc) mRNA expression
assayOverview: Expression of Luc induced by sample formulations, whole-body bioluminescence after intravenous administration
Type: in vivo
settings: Table 17-2; mice, i.v., 0.5 mg/kg, 24 hours
Lab note: anything with Total Flux 24 hours at or over 400000 counts as MET; the rest go in NOT MET.

>>> grouplabel("CCCCCCCCCCCCN(CCCO)CCCCCCCCCCCC")
"MET"
>>> grouplabel("CCCCCCCCCCCCN(CCO)CCCCCCCCCCCC")
"NOT MET"
>>> grouplabel("CCCCCC=CCC=CCCCCCCCCC(CCCCCCCCC=CCC=CCCCCC)OC(=O)CCCN(C)C (stereo not drawn) [MC3, reference compound]")
"MET"
>>> grouplabel("CCCCC/C=C\\C/C=C\\CCCCCCCCN(CCO)CCCCCCCCCCCCCC")
"MET"
>>> grouplabel("CCCCC/C=C\\C/C=C\\CCCCCCCCN(CCCCCCCC/C=C\\C/C=C\\CCCCC)CCOC")
"NOT MET"
>>> grouplabel("CCCCCCCC/C=C\\CCCCCCCCN(CCO)CCCCCCCC/C=C\\CCCCCCCC")
"MET"
>>> grouplabel("CCCCC/C=C\\C/C=C\\CCCCCCCCN(CCO)CCCCCCCCC")
"MET"
>>> grouplabel("CCCCC/C=C\\C/C=C\\CCCCCCCCN(CCO)CCCCCC")
"NOT MET"

----------
assayOverview: pKa of nanoparticle compositions
Type: physicochemical
settings: Table 1; rows without footnote mark
reportedEndpoint: pKa

>>> experimentalvalue("CCCCCCCCCCCCCCN(CCCCCCCCCCCCCC)CCN(CCCCCCCCCCCCCC)CCN1CCN(CCN(CCCCCCCCCCCCCC)CCCCCCCCCCCCCC)CC1")
6.28
>>> experimentalvalue("CCCCCCCCCN(CCCCCCCCC)CCN(CCCCCCCCC)CC(=O)N1CCN(C(=O)CN(CCCCCCCCC)CCCCCCCCC)CC1")
7.12
>>> experimentalvalue("CCCCCCCCCCCCN(CCCCCCCCCCCC)CCN(CCCCCCCCCCCC)CCN1CCN(CCN(CCCCCCCCC)CCCCCCCCC)CC1")
6.07
>>> experimentalvalue("CCCCCCCCCCCCCCN(CCCCCCCCCCCCCC)CCN(CCCCCCCCCCCCCC)CCN1CCN(CCN(CCCCCCCCCCCC)CCCCCCCCCCCC)CC1")
6.31
>>> experimentalvalue("CCCCCCCCCCCCN(CCCCCCCCCCCC)CCN(CCCCCCCCCCCC)CCN1CCN(CCN(CCCCCC(=O)OCCCCC)CCCCCC(=O)OCCCCC)CC1")
6.31
>>> experimentalvalue("CCCCC/C=C\\C/C=C\\CCCCCCCCN(CCCCCCCCCCCC)CCN1CCN(CCN(CCCCCCCCCCCC)CCN(CCCCCCCCCCCC)CCCCCCCCCCCC)CC1")
6.14
>>> experimentalvalue("CCCCCCCCCN(CCCCCCCCC)CCN(CCCCCCCCC)CC(=O)N1CCN(C(=O)CN(CCCCCCCCC)CCCC(=O)OCCCCC)CC1")
6.77
>>> experimentalvalue("CCCCCCCCCN(CCCCCCCCC)CCN(CCCCCCCCC)CCN1CCN(CCN(CCCCCCCCC)CCCCCCCCC)CC1")
6.17
>>> experimentalvalue("CCCCCCCCCN(CCCCCCCCC)CCN(CCCCCCCCC)CC(=O)N1CCN(C(=O)CN(CCCCCCCCC)CCCCCCCC(=O)OC)CC1")
6.82
>>> experimentalvalue("CCCCCCCCCCCCN(CCCCCCCCCCCC)CCN(CCCCCCCCCCCC)CC(=O)N1CC2CC1CN2C(=O)CN(CCCCCCCCC)CCCCCCCCC (stereo not drawn)")
6.72
>>> experimentalvalue("CCCCCCCCCCCCCCN(CCCCCCCCCCCCCC)CC(=O)N1CCN(C(=O)CN(CCCCCCCCC)CCN(CCCCCCCCC)CCCCCCCCC)CC1")
6.44
>>> experimentalvalue("CCCCCCCC/C=C\\CCCCCCCCN(CCCCCCCC/C=C\\CCCCCCCC)CCN1CCN(CCN(CCCCCCCCCCCC)CCN(CCCCCCCCCCCC)CCCCCCCCCCCC)CC1")
6.04
